- Test system: genotype 1a (H77) stable HCV replicon in Huh-7-derived cells
- TEST: Stable subgenomic HCV replicon EC50, genotype 1a (Renilla luciferase)
- Type: cell-based, hepatitis C virus
- MEASUREMENT_SETUP: Hepatitis C virus, stable replicon genotype 1a, 72 h, read-out: EC50 1A RLUC
METRIC_NAME: EC50 (nM)
I only need the number, in nM, no unit after it.

COc1ccc2nc3c(nc2c1)O[C@H]1CN(C(=O)[C@H](C(C)(C)C)NC(=O)O[C@@]2(C)C[C@@H]2CCCCC3(F)F)[C@H](C(=O)N[C@]2(C(=O)NS(=O)(=O)C3(C)CC3)C[C@H]2C(F)F)[C@@H]1C
23

Could you now consider this next compound?
// query Which EC50 is listed for CC[C@@H]1[C@@H]2CN(C(=O)[C@H](C(C)(C)C)NC(=O)O[C@@H]3C[C@H]3CCCCC(F)c3nc4ccc(OC)cc4nc3O2)[C@@H]1C(=O)N[C@]1(C(=O)NS(=O)(=O)C2(C)CC2)C[C@H]1C(F)F (some centres unmarked) ?
// result 12

====

EC50 values, listed per item
- Tested on: genotype 1b NS3/4a protease inhibitor resistant variant D168A transient HCV replicon in Huh-7-derived cells
- TEST: Transient-transfected HCV replicon EC50, genotype 1b D168A
- Type: cell-based, hepatitis C virus
- MEASUREMENT_SETUP: Hepatitis C virus, 72 h, read-out: EC50 1B D168A, transient-transfected replicon genotype 1b D168A resistant variant, 72 h
Write down the numeric answer in nM and omit the unit.

COc1ccc2nc3c(nc2c1)O[C@H]1CN(C(=O)[C@H](C(C)(C)C)NC(=O)O[C@@H]2C[C@H]2CCCCC3)[C@H](C(=O)N[C@]2(C(=O)NS(=O)(=O)C3CC3)C[C@H]2CC(F)F)[C@@H]1C
284
CC[C@@]12C[C@H]1CCCCCc1nc3ccc(OC)cc3nc1O[C@H]1CN(C(=O)[C@H](C(C)(C)C)NC(=O)O2)[C@H](C(=O)N[C@]2(C(=O)NS(=O)(=O)C3(C)CC3)C[C@H]2C(F)F)[C@@H]1C
41
CC[C@@H]1C[C@]1(NC(=O)[C@@H]1[C@H](C)[C@@H]2CN1C(=O)[C@H](C(C)(C)C)NC(=O)O[C@@H]1C[C@H]1CCCCCc1nc3ccc(OC)cc3nc1O2)C(=O)NS(=O)(=O)C1CC1
90

Next compound, EC50 to be filled in.
// query Consider the compound C[C@@H]1[C@@H]2CN(C(=O)[C@H](C(C)(C)C)NC(=O)O[C@@H]3C[C@@H]4C[C@@H]4[C@H]3CC/C=C/Cn3c(nc4cc(Cl)ccc4c3=O)O2)[C@@H]1C(=O)N[C@]1(C(=O)NS(=O)(=O)C2(C)CC2)C[C@H]1C(F)F and give its measured EC50.
// result 3.6

====

- ASSAYED_SYSTEM: HCV NS3 protease domain genotype 3a (Hepatitis C virus genotype 3a)
- Sequence (Q81258 whole entry, looked up, the tested form may be a part): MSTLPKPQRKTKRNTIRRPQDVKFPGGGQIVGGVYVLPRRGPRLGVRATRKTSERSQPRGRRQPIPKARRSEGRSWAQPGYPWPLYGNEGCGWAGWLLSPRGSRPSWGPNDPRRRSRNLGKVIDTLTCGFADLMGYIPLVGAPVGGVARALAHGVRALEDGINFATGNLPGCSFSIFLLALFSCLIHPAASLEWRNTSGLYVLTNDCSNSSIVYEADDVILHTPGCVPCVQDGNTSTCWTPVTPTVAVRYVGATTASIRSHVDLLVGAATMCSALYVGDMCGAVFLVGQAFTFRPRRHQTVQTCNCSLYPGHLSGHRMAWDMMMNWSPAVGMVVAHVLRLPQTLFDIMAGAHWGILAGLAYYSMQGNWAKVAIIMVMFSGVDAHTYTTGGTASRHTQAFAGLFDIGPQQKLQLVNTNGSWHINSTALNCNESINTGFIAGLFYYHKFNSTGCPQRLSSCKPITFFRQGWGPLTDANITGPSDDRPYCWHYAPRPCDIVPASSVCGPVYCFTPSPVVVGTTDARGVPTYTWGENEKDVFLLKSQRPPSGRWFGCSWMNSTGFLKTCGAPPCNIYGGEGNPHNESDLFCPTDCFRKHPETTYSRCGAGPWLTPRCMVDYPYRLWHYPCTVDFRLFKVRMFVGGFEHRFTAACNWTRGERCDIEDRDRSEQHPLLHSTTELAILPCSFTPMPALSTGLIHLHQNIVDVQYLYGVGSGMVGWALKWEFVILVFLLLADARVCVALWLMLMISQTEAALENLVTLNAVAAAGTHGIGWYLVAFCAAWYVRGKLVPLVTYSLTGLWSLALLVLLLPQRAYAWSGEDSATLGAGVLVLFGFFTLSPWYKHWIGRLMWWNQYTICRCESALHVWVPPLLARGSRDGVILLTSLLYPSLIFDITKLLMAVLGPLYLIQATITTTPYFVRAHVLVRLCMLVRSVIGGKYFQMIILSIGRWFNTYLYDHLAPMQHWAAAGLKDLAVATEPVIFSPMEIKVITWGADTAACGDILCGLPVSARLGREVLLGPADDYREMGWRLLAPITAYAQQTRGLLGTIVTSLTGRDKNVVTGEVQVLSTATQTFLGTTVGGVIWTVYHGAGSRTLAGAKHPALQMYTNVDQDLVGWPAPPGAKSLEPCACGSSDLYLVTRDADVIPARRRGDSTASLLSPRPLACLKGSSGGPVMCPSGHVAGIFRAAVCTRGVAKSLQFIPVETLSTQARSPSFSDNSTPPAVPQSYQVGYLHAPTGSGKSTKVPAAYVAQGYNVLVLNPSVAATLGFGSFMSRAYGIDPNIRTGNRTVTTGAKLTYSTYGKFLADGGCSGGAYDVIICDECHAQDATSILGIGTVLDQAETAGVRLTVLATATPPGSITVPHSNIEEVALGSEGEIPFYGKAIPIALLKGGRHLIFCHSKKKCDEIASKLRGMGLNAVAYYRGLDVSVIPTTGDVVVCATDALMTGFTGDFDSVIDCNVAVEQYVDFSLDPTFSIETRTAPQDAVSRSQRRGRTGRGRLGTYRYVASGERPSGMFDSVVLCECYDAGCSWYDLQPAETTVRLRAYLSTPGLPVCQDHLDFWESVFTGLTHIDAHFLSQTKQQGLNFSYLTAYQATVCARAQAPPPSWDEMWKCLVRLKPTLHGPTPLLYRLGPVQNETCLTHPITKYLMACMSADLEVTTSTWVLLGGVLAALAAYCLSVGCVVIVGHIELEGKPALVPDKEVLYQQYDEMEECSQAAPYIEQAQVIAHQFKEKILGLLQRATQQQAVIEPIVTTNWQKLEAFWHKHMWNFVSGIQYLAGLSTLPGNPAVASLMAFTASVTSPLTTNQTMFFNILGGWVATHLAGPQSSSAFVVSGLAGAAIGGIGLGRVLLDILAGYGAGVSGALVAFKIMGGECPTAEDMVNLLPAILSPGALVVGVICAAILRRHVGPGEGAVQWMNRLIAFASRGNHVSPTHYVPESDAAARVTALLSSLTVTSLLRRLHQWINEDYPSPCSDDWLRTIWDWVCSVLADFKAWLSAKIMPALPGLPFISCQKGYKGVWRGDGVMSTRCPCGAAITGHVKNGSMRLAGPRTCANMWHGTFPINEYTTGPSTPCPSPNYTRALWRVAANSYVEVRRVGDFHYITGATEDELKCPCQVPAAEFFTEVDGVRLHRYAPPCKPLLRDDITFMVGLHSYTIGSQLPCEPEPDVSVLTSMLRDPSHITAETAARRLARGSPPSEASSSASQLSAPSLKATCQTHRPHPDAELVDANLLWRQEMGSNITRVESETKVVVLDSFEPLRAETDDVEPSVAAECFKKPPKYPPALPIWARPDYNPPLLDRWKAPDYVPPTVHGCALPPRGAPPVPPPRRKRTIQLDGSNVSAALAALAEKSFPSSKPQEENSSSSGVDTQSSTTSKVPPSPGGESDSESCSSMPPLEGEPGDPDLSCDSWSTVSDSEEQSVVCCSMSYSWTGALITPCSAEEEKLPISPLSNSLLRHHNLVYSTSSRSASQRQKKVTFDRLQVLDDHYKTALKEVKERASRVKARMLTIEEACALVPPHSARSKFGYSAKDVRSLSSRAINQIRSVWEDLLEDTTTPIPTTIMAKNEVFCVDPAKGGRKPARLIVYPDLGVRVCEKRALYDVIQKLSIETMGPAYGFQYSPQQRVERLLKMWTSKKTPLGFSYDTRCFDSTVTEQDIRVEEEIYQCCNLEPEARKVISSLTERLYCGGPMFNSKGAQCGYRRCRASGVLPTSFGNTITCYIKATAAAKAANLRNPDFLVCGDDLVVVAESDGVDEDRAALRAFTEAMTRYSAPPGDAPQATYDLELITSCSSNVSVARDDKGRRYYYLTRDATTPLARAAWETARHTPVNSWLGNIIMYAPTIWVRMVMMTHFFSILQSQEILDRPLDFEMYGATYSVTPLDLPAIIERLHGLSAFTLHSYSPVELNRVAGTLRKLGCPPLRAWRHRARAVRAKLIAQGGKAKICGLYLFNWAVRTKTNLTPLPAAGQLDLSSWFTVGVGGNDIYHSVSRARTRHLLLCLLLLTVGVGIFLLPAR
- TEST: Ki determination, NS3 protease genotype 3a (fluorogenic depsipeptide substrate)
- Format: biochemical
- MEASUREMENT_SETUP: 200 pM enzyme, NS4A peptide
METRIC_NAME: pKi
Answer as the number alone; pKi is minus log10 of concentration in mol/L.

CC[C@@H]1[C@@H]2CN(C(=O)[C@H](C3CCCC3)NC(=O)O[C@@H]3C[C@H]3CCCCCc3nc4ccc(OC)cc4nc3O2)[C@@H]1C(=O)N[C@]1(C(=O)NS(=O)(=O)C2(C)CC2)C[C@H]1C(F)F [Example 14]
9.62
CC[C@@H]1[C@@H]2CN(C(=O)[C@H](C3CCCCC3)NC(=O)O[C@@H]3C[C@H]3CCCCCc3nc4ccc(OC)cc4nc3O2)[C@@H]1C(=O)N[C@]1(C(=O)NS(=O)(=O)C2(C)CC2)C[C@H]1C(F)F [Example 16]
9.68
COc1ccc2nc3c(nc2c1)O[C@H]1CN(C(=O)[C@H](C(C)(C)C)NC(=O)O[C@]2(C)C[C@H]2CCCCC3(F)F)[C@H](C(=O)N[C@]2(C(=O)NS(=O)(=O)C3(C)CC3)C[C@H]2C(F)F)[C@@H]1C [Example 76]
10.22
CC[C@@H]1[C@@H]2CN(C(=O)[C@H](C(C)(C)C)NC(=O)O[C@]3(C)C[C@H]3CCCCCc3nc4ccc(OC)cc4nc3O2)[C@@H]1C(=O)N[C@]1(C(=O)NS(=O)(=O)C2(C)CC2)C[C@H]1C(F)F [Example 7]
10.22
COc1ccc2nc3c(nc2c1)O[C@H]1CN(C(=O)[C@H](C(C)(C)C)NC(=O)O[C@@H]2[C@H]4CC[C@H](C4)[C@H]2CCCCC3)[C@H](C(=O)N[C@]2(C(=O)NS(=O)(=O)C3CC3)C[C@H]2C(F)F)[C@@H]1C [Example 26]
9.77
COc1ccc2nc3c(nc2c1)O[C@H]1CN(C(=O)[C@H](C(C)(C)C)NC(=O)O[C@@H]2CCCC[C@H]2CCCCC3(F)F)[C@H](C(=O)N[C@]2(C(=O)NS(=O)(=O)C3CC3)C[C@H]2C(F)F)[C@@H]1C [Example 68]
9.20
COc1ccc2nc3c(nc2c1)O[C@H]1CN(C(=O)[C@H](C(C)(C)C)NC(=O)O[C@@H]2C[C@H]2CCCCC3(F)F)[C@H](C(=O)N[C@]2(C(=O)NS(=O)(=O)C3(C)CC3)C[C@H]2C(F)F)[C@@H]1C [Example 46]
10.30
CCC[C@@H]1[C@@H]2CN(C(=O)[C@H](C(C)(C)C)NC(=O)O[C@@H]3C[C@H]3CCCCC(F)(F)c3nc4ccc(OC)cc4nc3O2)[C@@H]1C(=O)N[C@]1(C(=O)NS(=O)(=O)C2CC2)C[C@H]1C(F)F [Example 60]
10.10
CCOc1ccc2nc3c(nc2c1)O[C@H]1CN(C(=O)[C@H](C(C)(C)C)NC(=O)O[C@@H]2C[C@H]2CCCCC3)[C@H](C(=O)N[C@]2(C(=O)NS(=O)(=O)C3(C)CC3)C[C@H]2C(F)F)[C@@H]1CC [Example 69]
9.77
COc1ccc2nc3c(nc2c1)O[C@H]1CN(C(=O)[C@H](C(C)(C)C)NC(=O)O[C@@H]2C[C@@H]4C[C@@H]4[C@H]2CCCCC3)[C@H](C(=O)NC2(C(=O)NS(=O)(=O)C3CC3)C[C@H]2C(F)F)[C@@H]1C (stereo in doubt) [Example 33]
10.22

// query # query: pKi of entry CC[C@@H]1[C@@H]2CN(C(=O)[C@H](C(C)(C)C)NC(=O)O[C@@H]3C[C@H]3CCCCCc3nc4ccc(OCC(F)(F)F)cc4nc3O2)[C@@H]1C(=O)N[C@]1(C(=O)NS(=O)(=O)C2(C)CC2)C[C@H]1C(F)F [Example 55]
// result 9.70

// query COc1ccc2nc3c(nc2c1)O[C@H]1CN(C(=O)[C@H](C(C)(C)C)NC(=O)O[C@@H]2CC4CC(C4)[C@H]2CCCCC3)[C@H](C(=O)N[C@]2(C(=O)NS(=O)(=O)C3CC3)C[C@H]2C(F)F)[C@@H]1C [Example 71] ?
// result 9.85

// query Field entry: CC[C@@H]1[C@@H]2CN(C(=O)[C@H](C(C)(C)C)NC(=O)O[C@@H]3C[C@@H]4C[C@@H]4[C@H]3CCCCCc3nc4ccc(OC)cc4nc3O2)[C@@H]1C(=O)N[C@]1(C(=O)NS(=O)(=O)C2CC2)C[C@H]1C(F)F [Example 70]
// result 10.30

// query Now this one: CC[C@@]12C[C@H]1CCCCCc1nc3ccc(OC)cc3nc1O[C@H]1CN(C(=O)[C@H](C(C)(C)C)NC(=O)O2)[C@H](C(=O)N[C@]2(C(=O)NS(=O)(=O)C3(C)CC3)C[C@H]2C(F)F)[C@@H]1C [Example 43]
// result 9.80

// query Cool, now COc1ccc2nc3c(nc2c1)O[C@H]1CN(C(=O)[C@H](C(C)(C)C)NC(=O)O[C@@H]2C[C@H]2CCCCC3)[C@H](C(=O)N[C@]2(C(=O)NS(=O)(=O)C3(C)CC3)C[C@H]2C(F)F)[C@@H]1Cc1ccccc1 [Example 32]
// result 9.06

// query Follow-up entry: CC[C@@H]1[C@@H]2CN(C(=O)[C@H](C(C)(C)C)NC(=O)O[C@]3(C)C[C@H]3CCCCC(F)(F)c3nc4ccc(OC)cc4nc3O2)[C@@H]1C(=O)N[C@]1(C(=O)NS(=O)(=O)C2(C)CC2)C[C@H]1C(F)F [Example 63]
// result 11.00

// query Same question for CC[C@@H]1[C@@H]2CN(C(=O)[C@H](C(C)(C)C)NC(=O)O[C@@H]3C[C@H]3CCCC3CC3c3nc4ccc(OC)cc4nc3O2)[C@@H]1C(=O)N[C@]1(C(=O)NS(=O)(=O)C2(C)CC2)C[C@H]1C(F)F (some centres unmarked) [Example 36] please.
// result 8.77
